# Test system: SF-268 CNS
# protocolText: NCI tumour cell line growth inhibition, 48 h
quantityName: TGI

(Q) Which measured TGI value corresponds to Cc1csc2nc3c(cnn3C)c(=S)n12 ?
(A) > 100 µM

(Q) Try O=[N+]([O-])c1cccc(C2N3CCCCC3[C@@H]3c4[nH]c5ccccc5c4CCN23)c1 (stereo not given in full) next.
(A) 27.4 µM

(Q) Repeat for the following molecule: COc1cc(C2SCC(=O)N2c2ccccc2Cl)cc(OC)c1OC (stereo not given)
(A) > 100 µM

(Q) Do the same for COc1cc(S(=O)(=O)Nc2nc(-c3ccc(N4C(=O)C(CC(=O)O)SC4c4ccccc4O)cc3)cs2)ccc1Cl (stereo not given) please
(A) > 100 µM

(Q) Next entry: C=CC1(C(=O)O)CCC(C(C)(C)C)CC1 (stereo not given)
(A) > 100 µM

====

# Test system: NCI/ADR-RES ovarian
# protocolText: NCI tumour cell line growth inhibition, 48 h
quantityName: TGI

(Q) TGI for Nc1c(C(=O)c2ccc(Cl)cc2)sc(Nc2ccccc2)c1-c1nc2ccccc2s1 ?
(A) > 100 µM

(Q) Another: O=C1NC(=O)C(Cc2ccccc2)(c2cccnc2)N1 (stereo not given)
(A) > 100 µM

(Q) Next: COc1ccc([N+](=O)[O-])c2c(NCCCN(C)C)c3ccccc3nc12
(A) 23.5 µM

(Q) // same read-out, input: NOCC(=O)O
(A) > 100 µM

(Q) # iterate: O=C(c1cc(Cl)cc(Cl)c1)N(C(=O)N1CCN(c2ccccc2)CC1)c1ccccc1
(A) > 100 µM

(Q) Same read-out for CCOC(=O)CCC(NC(=O)c1ccc(CNc2nc3ccccc3nc2C(=O)OCC)cc1)C(=O)OCC (stereo not given) ?
(A) > 100 µM

(Q) And for Nc1ccc(N(S(=O)(=O)c2ccccc2)S(=O)(=O)c2ccccc2)c(Cl)c1 ?
(A) > 100 µM

(Q) Another compound: CCC(C)C(C(=O)N/N=C1/SCC(=O)N1c1ccccc1)C(=O)N/N=C1/SCC(=O)N1c1ccccc1 (stereo not given)
(A) > 100 µM

(Q) Repeat with Cn1ccnc1CC(C)(O)c1ccccc1 (stereo not given)
(A) > 100 µM

(Q) Would you mind doing COc1cc(/C=C/C(=O)CC(=O)/C=C/c2cc(OC)c(OC)c(OC)c2)cc(OC)c1OC as well?
(A) > 100 µM

====

# System: CAKI-1 renal
# protocolText: NCI tumour cell line growth inhibition, 48 h
quantityName: GI50

(Q) Look at this compound and give its reported GI50. Cc1ccccc1NC(=O)N/C(N)=N/c1nc(-c2cccc([N+](=O)[O-])c2)cs1
(A) 1.16 µM

(Q) How about CC(C)=CCCC(C)c1ccc(C)c2c1OCN(CC1CCNCC1)C2 (configuration not stated) ?
(A) 17.7 µM

(Q) Could you do the same for CCOC(=O)C(N)C[S][Sn]([CH3])([CH3])[Cl] (configuration not stated) , please?
(A) > 100 µM

(Q) Here is the next compound: O=[N+]([O-])c1cc(Cl)c(Cl)c([N+](=O)[O-])c1Cl
(A) 0.184 µM

(Q) Next entry: O=c1ccn(C2OC(CO)C(O)C2F)c(=O)[nH]1 (configuration not stated)
(A) > 88.9 µM

(Q) Then this compound: O=c1c2c(nc3n1CCS3)[nH]c1ccccc12
(A) 76.8 µM

(Q) Also need CC1=C2[C@@H](CC1)[C@]1(C)O[C@@](C3CCCCC3)(C[C@H]1OC(=O)CO)[C@H]2OC(=O)/C=C/c1ccccc1 , thanks.
(A) 5.92 µM
